Test system: ACHN
assay-text: Cytotoxicity against TRAIL-resistant human ACHN cells assessed as cell killing after 20 to 24 hrs
Assay type: functional, cell-based
value-kind: pEC50
Answers are plain numbers, as −log10 of the molar value.

compound	target-or-system	pEC50
C=C/C(C)=C/C[C@]1(C)[C@H](C)[C@@H](O)C[C@@]23C(=C[C@H](OC(=O)/C=C\C=C\CCCCC)C[C@@H]12)[C@@H](OC(C)=O)O[C@H]3OC(C)=O [ARGUTIN E]	ACHN	5.48

List the reported pEC50 of each compound below.
1. C=CC(=C)[C@@H](C[C@]1(C)[C@H](C)[C@@H](O)[C@@H](O)[C@@]23C(=C[C@H](OC(=O)/C=C\C=C\CCCCC)C[C@@H]12)[C@@H](OC(C)=O)O[C@H]3OC(C)=O)OO [ARGUTIN G]
2. C=C/C(C)=C/C[C@]1(C)[C@H](C)[C@@H](O)[C@@H](O)[C@@]23C(=C[C@H](OC(=O)/C=C\C=C\CCCCC)C[C@@H]12)[C@@H](OC(C)=O)O[C@H]3OC(C)=O [ARGUTIN C]
3. C=C/C(C)=C/C[C@]1(C)[C@H](C)C[C@@H](O)[C@@]23C(=C[C@H](OC(=O)/C=C\C=C\CCCCC)C[C@@H]12)[C@@H](OC(C)=O)O[C@H]3OC(C)=O [ARGUTIN A]

stdout:
1. 5.38
2. 5.51
3. 5.27

---

Test system: ACHN
assay-text: Cytotoxicity against TRAIL-resistant human ACHN cells assessed as cell killing after 20 to 24 hrs
Type: functional, cell-based
value-kind: EC50
Answer with the value and then the unit.

# example entries with known answers
compound	target-or-system	EC50
C=C/C(C)=C/C[C@]1(C)[C@H](C)C[C@@H](OC(=O)/C=C/C=C/CCCCC)[C@@]23C(=C[C@H](O)C[C@@H]12)[C@@H](OC(C)=O)O[C@H]3OC(C)=O [ARGUTIN B]	ACHN	13.8 µM
C=CC(=C)[C@@H](C[C@]1(C)[C@H](C)C[C@@H](O)[C@@]23C(=C[C@H](OC(=O)/C=C\C=C\CCCCC)C[C@@H]12)[C@@H](OC(C)=O)O[C@H]3OC(C)=O)OO [ARGUTIN F]	ACHN	10.4 µM

Switching to the query record.
stdin: Hello, please tell me recorded EC50 for this one: C=C/C(C)=C/C[C@]1(C)[C@H](C)[C@@H](O)[C@@H](OC(=O)/C=C/C=C/CCCCC)[C@@]23C(=C[C@H](O)C[C@@H]12)[C@@H](OC(C)=O)O[C@H]3OC(C)=O [ARGUTIN D]
stdout: 14.3 µM

Data provenance: ChEMBL document CHEMBL1649347
